TARGET SYSTEM: T1, human IL-23 (Sino Biological, CT048-H08H) (human, UniProt Q9NPF7 20-189; P29460 23-328)
T1 construct: also called human IL-23 protein; Human IL-23 p19
T1 sequence (looked up) 1: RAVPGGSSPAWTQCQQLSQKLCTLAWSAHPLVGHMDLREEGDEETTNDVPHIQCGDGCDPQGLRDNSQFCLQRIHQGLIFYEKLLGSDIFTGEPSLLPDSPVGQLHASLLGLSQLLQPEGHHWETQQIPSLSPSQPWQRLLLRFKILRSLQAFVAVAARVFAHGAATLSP
T1 sequence (looked up) 2: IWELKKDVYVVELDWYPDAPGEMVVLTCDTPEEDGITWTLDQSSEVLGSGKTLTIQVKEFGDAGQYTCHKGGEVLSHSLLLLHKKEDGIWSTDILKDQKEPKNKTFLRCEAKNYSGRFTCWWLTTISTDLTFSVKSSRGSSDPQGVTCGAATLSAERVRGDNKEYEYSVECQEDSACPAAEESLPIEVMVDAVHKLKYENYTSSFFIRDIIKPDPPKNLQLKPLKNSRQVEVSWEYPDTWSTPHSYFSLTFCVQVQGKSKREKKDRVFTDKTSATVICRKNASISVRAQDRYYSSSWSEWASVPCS
TEST METHOD NOTES: SPR (Biacore), Protein A capture of sample, 1:1 model
Please provide measured kon for the entries that follow.
Number only, in M⁻¹ s⁻¹; omit the unit.

Q) Look up kon: Hu38-5 (antibody, human IgG1, kappa, L234A L235A, V domains shown, humanized mAb38, IgG1/kappa) VH: EVQLVQSGAEVKKPGASVKVSCKASGYSFTDHNMNWVRQAPGQRLEWMGVINPNYGTTTYNQKFKGRVTITVDTSASTAYMELSSLRSEDTAVYYCARRGFAYWGQGTLVTVSS VL: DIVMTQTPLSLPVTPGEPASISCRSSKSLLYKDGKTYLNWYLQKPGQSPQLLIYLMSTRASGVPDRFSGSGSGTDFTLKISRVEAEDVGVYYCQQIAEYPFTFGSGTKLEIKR
A) 210000

Q) Look up kon: Ch38 (antibody, human IgG1, kappa, L234A L235A, V domains shown, chimeric: murine variable regions on hIgG1/hkappa; also called chimeric antibody of mAb38) VH: EFQLQQSGPELVKPGASVKISCKASGYSFTDHNMNWVKQSNGKSLEWIGVINPNYGTTTYNQKFKGKATLTVDQSSSTAYMQLNILTSEDSAVYYCARRGFAYWGQGTLVTVSA VL: DIVISQDELSNPVTSGESVSISCRSSKSLLYKDGKTYLNWFLQRPGQSPQLLIYLMSTRASGVSDRFSGSGSGTDLTLEISRVKAEDVGVYYCQQIAEYPFTFGSGTKLEIKR
A) 627000
